Where do these numbers come from? They come from paper PMC7531004.

# System: Streptococcus pyogenes SSI-9
# EXPERIMENT_DESCRIPTION: Antibacterial activity assay of bead-derived peptides (three concentrations)
# Assay type: cell-based
# Set-up: key: +++: inhibition by the 640-fold diluted peptide solution; ++: inhibition by the 160-fold diluted solution; +: inhibition by the 40-fold diluted solution; -: no inhibition
# TEST_CONTEXT: S. pyogenes, bead-derived peptide solution, three concentrations
Where a SMILES comes first, the peptide text is derived from it. [ ]: non-standard residue; d: D form. The star is where a group is joined. NHCH2CH2OH = OCCN*; For = O=C*

{"columns": ["COMPOUND", "antibacterial activity"],
 "data": [
  ["CC(C)C[C@@H](NC(=O)[C@H](C)NC(=O)[C@H](NC(=O)[C@H](C)NC(=O)CNC(=O)[C@@H](NC=O)C(C)C)[C@H](C)O)C(=O)N[C@H](C(=O)N[C@@H](C(=O)N[C@@H](Cc1c[nH]c2ccccc12)C(=O)N[C@@H](C(=O)N[C@@H](Cc1c[nH]c2ccccc12)C(=O)N[C@H](CC(C)C)C(=O)N[C@@H](Cc1c[nH]c2ccccc12)C(=O)N[C@H](CC(C)C)C(=O)N[C@@H](Cc1c[nH]c2ccccc12)C(=O)NCCO)[C@H](C)O)C(C)C)C(C)C [compound 6896] (For-VGA[dT]A[dL]V[dV]W[dT]W[dL]W[dL]W-NHCH2CH2OH)", "-"],
  ["CNC(=O)C[C@@H](NC(=O)[C@@H](NC(=O)[C@H](NC(=O)[C@H](C)NC(=O)[C@@H](CC(C)C)NC(=O)[C@H](C)NC(=O)CNC(=O)[C@@H](NC=O)C(C)C)C(C)C)C(C)C)C(=O)N[C@@H](Cc1c[nH]c2ccccc12)C(=O)N[C@@H](C(=O)N[C@@H](Cc1c[nH]c2ccccc12)C(=O)N[C@H](CC(C)C)C(=O)N[C@@H](Cc1c[nH]c2ccccc12)C(=O)N[C@@H](C(=O)N[C@@H](Cc1c[nH]c2ccccc12)C(=O)NCCO)C(C)C)C(C)C [compound 5778] (For-VGA[dL]A[dV]V[dD](NHMe)W[dV]W[dL]W[dV]W-NHCH2CH2OH)", "-"],
  ["CC(C)C[C@@H](NC(=O)[C@H](C)NC(=O)CNC(=O)[C@@H](NC=O)C(C)C)C(=O)N[C@@H](C)C(=O)N[C@H](CC(C)C)C(=O)N[C@H](C(=O)N[C@@H](C(=O)N[C@@H](Cc1c[nH]c2ccccc12)C(=O)N[C@@H](C(=O)N[C@@H](Cc1c[nH]c2ccccc12)C(=O)N[C@@H](C(=O)N[C@@H](Cc1c[nH]c2ccccc12)C(=O)N[C@@H](C(=O)N[C@@H](Cc1c[nH]c2ccccc12)C(=O)NCCO)C(C)C)C(C)C)C(C)C)C(C)C)C(C)C [compound 7100] (For-VGA[dL]A[dL]V[dV]W[dV]W[dV]W[dV]W-NHCH2CH2OH)", "-"],
  ["CNC(=O)C[C@@H](NC(=O)[C@@H](NC(=O)[C@H](NC(=O)[C@H](C)NC(=O)[C@@H](CC(C)C)NC(=O)[C@H](C)NC(=O)CNC(=O)[C@@H](NC=O)C(C)C)C(C)C)C(C)C)C(=O)N[C@@H](Cc1c[nH]c2ccccc12)C(=O)N[C@H](CC(C)C)C(=O)N[C@@H](Cc1c[nH]c2ccccc12)C(=O)N[C@H](CC(C)C)C(=O)N[C@@H](Cc1c[nH]c2ccccc12)C(=O)N[C@@H](C(=O)N[C@@H](Cc1c[nH]c2ccccc12)C(=O)NCCO)C(C)C [compound 7204] (For-VGA[dL]A[dV]V[dD](NHMe)W[dL]W[dL]W[dV]W-NHCH2CH2OH)", "-"],
  ["CC(C)C[C@@H](NC(=O)[C@@H](NC(=O)[C@H](NC(=O)[C@H](C)NC(=O)[C@H](NC(=O)[C@H](C)NC(=O)CNC(=O)[C@@H](NC=O)C(C)C)[C@H](C)O)C(C)C)C(C)C)C(=O)N[C@@H](Cc1c[nH]c2ccccc12)C(=O)N[C@@H](C(=O)N[C@@H](Cc1c[nH]c2ccccc12)C(=O)N[C@@H](C(=O)N[C@@H](Cc1c[nH]c2ccccc12)C(=O)N[C@@H](C(=O)N[C@@H](Cc1c[nH]c2ccccc12)C(=O)NCCO)C(C)C)C(C)C)C(C)C [compound 5623] (For-VGA[dT]A[dV]V[dL]W[dV]W[dV]W[dV]W-NHCH2CH2OH)", "-"],
  ["CC(C)C[C@@H](NC(=O)[C@H](C)NC(=O)CNC(=O)[C@@H](NC=O)C(C)C)C(=O)N[C@@H](C)C(=O)N[C@H](CC(C)C)C(=O)N[C@H](C(=O)N[C@H](CC(C)C)C(=O)N[C@@H](Cc1c[nH]c2ccccc12)C(=O)N[C@@H](C(=O)N[C@@H](Cc1c[nH]c2ccccc12)C(=O)N[C@H](CC(C)C)C(=O)N[C@@H](Cc1c[nH]c2ccccc12)C(=O)N[C@@H](C(=O)N[C@@H](Cc1c[nH]c2ccccc12)C(=O)NCCO)C(C)C)[C@H](C)O)C(C)C [compound 10499] (For-VGA[dL]A[dL]V[dL]W[dT]W[dL]W[dV]W-NHCH2CH2OH)", "-"],
  ["CNC(=O)C[C@@H](NC(=O)[C@H](Cc1c[nH]c2ccccc12)NC(=O)[C@@H](CC(C)C)NC(=O)[C@H](Cc1c[nH]c2ccccc12)NC(=O)[C@H](NC(=O)[C@H](Cc1c[nH]c2ccccc12)NC(=O)[C@@H](CC(C)C)NC(=O)[C@@H](NC(=O)[C@H](NC(=O)[C@H](C)NC(=O)[C@H](NC(=O)[C@H](C)NC(=O)CNC(=O)[C@@H](NC=O)C(C)C)C(C)C)C(C)C)C(C)C)C(C)C)C(=O)N[C@@H](Cc1c[nH]c2ccccc12)C(=O)NCCO [compound 8400] (For-VGA[dV]A[dV]V[dL]W[dV]W[dL]W[dD](NHMe)W-NHCH2CH2OH)", "-"],
  ["CC(C)C[C@@H](NC(=O)[C@H](C)NC(=O)CNC(=O)[C@@H](NC=O)C(C)C)C(=O)N[C@@H](C)C(=O)N[C@@H](C(=O)N[C@H](C(=O)N[C@H](CC(C)C)C(=O)N[C@@H](Cc1c[nH]c2ccccc12)C(=O)N[C@@H](C(=O)N[C@@H](Cc1c[nH]c2ccccc12)C(=O)N[C@@H](C(=O)N[C@@H](Cc1c[nH]c2ccccc12)C(=O)N[C@@H](C(=O)N[C@@H](Cc1c[nH]c2ccccc12)C(=O)NCCO)[C@H](C)O)C(C)C)C(C)C)C(C)C)C(C)C [compound 12984] (For-VGA[dL]A[dV]V[dL]W[dV]W[dV]W[dT]W-NHCH2CH2OH)", "-"]
]}

---

# System: Streptococcus pyogenes SSI-9
# EXPERIMENT_DESCRIPTION: Antibacterial activity assay of bead-derived peptides (three concentrations)
# Type: cell-based
# Set-up: key: +++: inhibition by the 640-fold diluted peptide solution; ++: inhibition by the 160-fold diluted solution; +: inhibition by the 40-fold diluted solution; -: no inhibition
# TEST_CONTEXT: S. pyogenes, bead-derived peptide solution, three concentrations
Where a SMILES comes first, the peptide text is derived from it. [ ]: non-standard residue; d: D form. The star is where a group is joined. NHCH2CH2OH = OCCN*; For = O=C*

{"columns": ["COMPOUND", "antibacterial activity"],
 "data": [
  ["CC(C)C[C@@H](NC(=O)[C@H](Cc1c[nH]c2ccccc12)NC(=O)[C@H](NC(=O)[C@@H](NC(=O)[C@H](NC(=O)[C@H](C)NC(=O)[C@H](NC(=O)[C@H](C)NC(=O)CNC(=O)[C@@H](NC=O)C(C)C)C(C)C)[C@H](C)O)C(C)C)C(C)C)C(=O)N[C@@H](Cc1c[nH]c2ccccc12)C(=O)N[C@@H](C(=O)N[C@@H](Cc1c[nH]c2ccccc12)C(=O)N[C@@H](C(=O)N[C@@H](Cc1c[nH]c2ccccc12)C(=O)NCCO)C(C)C)C(C)C [compound 9055] (For-VGA[dV]A[dT]V[dV]W[dL]W[dV]W[dV]W-NHCH2CH2OH)", "-"],
  ["CNC(=O)C[C@@H](NC(=O)[C@H](Cc1c[nH]c2ccccc12)NC(=O)[C@H](NC(=O)[C@@H](NC(=O)[C@@H](CC(C)C)NC(=O)[C@H](C)NC(=O)[C@@H](CC(C)C)NC(=O)[C@H](C)NC(=O)CNC(=O)[C@@H](NC=O)C(C)C)C(C)C)C(C)C)C(=O)N[C@@H](Cc1c[nH]c2ccccc12)C(=O)N[C@H](CC(C)C)C(=O)N[C@@H](Cc1c[nH]c2ccccc12)C(=O)N[C@@H](C(=O)N[C@@H](Cc1c[nH]c2ccccc12)C(=O)NCCO)C(C)C [compound 6889] (For-VGA[dL]A[dL]V[dV]W[dD](NHMe)W[dL]W[dV]W-NHCH2CH2OH)", "-"],
  ["CC(C)C[C@@H](NC(=O)[C@H](C)NC(=O)CNC(=O)[C@@H](NC=O)C(C)C)C(=O)N[C@@H](C)C(=O)N[C@H](CC(C)C)C(=O)N[C@H](C(=O)N[C@H](CC(C)C)C(=O)N[C@@H](Cc1c[nH]c2ccccc12)C(=O)N[C@H](CC(C)C)C(=O)N[C@@H](Cc1c[nH]c2ccccc12)C(=O)N[C@H](CC(C)C)C(=O)N[C@@H](Cc1c[nH]c2ccccc12)C(=O)N[C@@H](C(=O)N[C@@H](Cc1c[nH]c2ccccc12)C(=O)NCCO)C(C)C)C(C)C [compound 8635] (For-VGA[dL]A[dL]V[dL]W[dL]W[dL]W[dV]W-NHCH2CH2OH)", "+"],
  ["CC(C)C[C@@H](NC(=O)[C@H](C)NC(=O)CNC(=O)[C@@H](NC=O)C(C)C)C(=O)N[C@@H](C)C(=O)N[C@@H](C(=O)N[C@H](C(=O)N[C@@H](C(=O)N[C@@H](Cc1c[nH]c2ccccc12)C(=O)N[C@@H](C(=O)N[C@@H](Cc1c[nH]c2ccccc12)C(=O)N[C@H](CC(C)C)C(=O)N[C@@H](Cc1c[nH]c2ccccc12)C(=O)N[C@@H](C(=O)N[C@@H](Cc1c[nH]c2ccccc12)C(=O)NCCO)C(C)C)C(C)C)C(C)C)C(C)C)C(C)C [compound 1289] (For-VGA[dL]A[dV]V[dV]W[dV]W[dL]W[dV]W-NHCH2CH2OH)", "+"],
  ["CC(C)C[C@@H](NC(=O)[C@H](Cc1c[nH]c2ccccc12)NC(=O)[C@@H](CC(C)C)NC(=O)[C@H](Cc1c[nH]c2ccccc12)NC(=O)[C@H](NC(=O)[C@H](Cc1c[nH]c2ccccc12)NC(=O)[C@@H](CC(C)C)NC(=O)[C@@H](NC(=O)[C@H](NC(=O)[C@H](C)NC(=O)[C@H](NC(=O)[C@H](C)NC(=O)CNC(=O)[C@@H](NC=O)C(C)C)C(C)C)C(C)C)C(C)C)C(C)C)C(=O)N[C@@H](Cc1c[nH]c2ccccc12)C(=O)NCCO [compound 4329] (For-VGA[dV]A[dV]V[dL]W[dV]W[dL]W[dL]W-NHCH2CH2OH)", "-"],
  ["CC(C)[C@H](NC=O)C(=O)NCC(=O)N[C@@H](C)C(=O)N[C@@H](C(=O)N[C@@H](C)C(=O)N[C@@H](C(=O)N[C@H](C(=O)N[C@@H](C(=O)N[C@@H](Cc1c[nH]c2ccccc12)C(=O)N[C@@H](C(=O)N[C@@H](Cc1c[nH]c2ccccc12)C(=O)N[C@@H](C(=O)N[C@@H](Cc1c[nH]c2ccccc12)C(=O)N[C@@H](C(=O)N[C@@H](Cc1c[nH]c2ccccc12)C(=O)NCCO)[C@H](C)O)C(C)C)C(C)C)C(C)C)C(C)C)C(C)C)C(C)C [compound 1983] (For-VGA[dV]A[dV]V[dV]W[dV]W[dV]W[dT]W-NHCH2CH2OH)", "-"],
  ["CC(C)C[C@@H](NC(=O)[C@H](C)NC(=O)CNC(=O)[C@@H](NC=O)C(C)C)C(=O)N[C@@H](C)C(=O)N[C@@H](C(=O)N[C@H](C(=O)N[C@@H](C(=O)N[C@@H](Cc1c[nH]c2ccccc12)C(=O)N[C@@H](C(=O)N[C@@H](Cc1c[nH]c2ccccc12)C(=O)N[C@H](CC(C)C)C(=O)N[C@@H](Cc1c[nH]c2ccccc12)C(=O)N[C@@H](C(=O)N[C@@H](Cc1c[nH]c2ccccc12)C(=O)NCCO)C(C)C)C(C)C)C(C)C)C(C)C)[C@H](C)O [compound 10415] (For-VGA[dL]A[dT]V[dV]W[dV]W[dL]W[dV]W-NHCH2CH2OH)", "-"],
  ["CNC(=O)C[C@@H](NC(=O)[C@@H](NC(=O)[C@@H](CC(C)C)NC(=O)[C@H](C)NC(=O)[C@@H](CC(C)C)NC(=O)[C@H](C)NC(=O)CNC(=O)[C@@H](NC=O)C(C)C)C(C)C)C(=O)N[C@@H](Cc1c[nH]c2ccccc12)C(=O)N[C@@H](C(=O)N[C@@H](Cc1c[nH]c2ccccc12)C(=O)N[C@@H](C(=O)N[C@@H](Cc1c[nH]c2ccccc12)C(=O)N[C@H](CC(C)C)C(=O)N[C@@H](Cc1c[nH]c2ccccc12)C(=O)NCCO)C(C)C)C(C)C [compound 11601] (For-VGA[dL]A[dL]V[dD](NHMe)W[dV]W[dV]W[dL]W-NHCH2CH2OH)", "-"]
]}
